IC50, Human KDR (Homo sapiens, UniProt P35968), per-entry values.
Readout Label: IC50

structure=COc1cc2nccc(Oc3ccc(NC(=O)c4c(C)nc(C)c(C5=CCCCC5)c4O)cc3F)c2nc1OC observed_value="≤ 100 nM"
structure=COc1cc2nccc(Oc3ccc(NC(=O)c4c(C)n(C)c(C)c(OC)c4=O)cc3F)c2nc1OC observed_value="> 300 nM"
structure=COCCOc1cc2nccc(Oc3ccc(NC(=O)c4c(C)nc(C)c(C5=CCOCC5)c4O)cc3F)c2nc1OC observed_value="≤ 100 nM"
structure=C=C(C)c1c(C)n(C)c(C)c(C(=O)Nc2ccc(Oc3ccnc4cc(OC)c(OC)nc34)c(F)c2)c1=O observed_value="> 300 nM"
structure=COc1cc2nccc(Oc3ccc(NC(=O)c4cn(CCF)c(C)c(C5=CCCC5)c4=O)cc3F)c2nc1OC observed_value="≤ 100 nM"
structure=COc1cc2nccc(Oc3ccc(NC(=O)c4c(C)n(C)c(C)c(/C=C/C(C)(C)C)c4=O)cc3F)c2nc1OC observed_value="≤ 100 nM"
structure=COc1cc2nccc(Oc3ccc(NC(=O)c4c(C)c(Br)c(C)n(C5CCCC5)c4=O)cc3F)c2nc1OC observed_value="100 to 300 nM"

* * *

- Assayed Target: Human Mer (Homo sapiens)
- Construct: Human Mer (residues R557-E882 with H628Q and R794A, 0.7 nM)
- Sequence (Q12866 557-882 limits assumed): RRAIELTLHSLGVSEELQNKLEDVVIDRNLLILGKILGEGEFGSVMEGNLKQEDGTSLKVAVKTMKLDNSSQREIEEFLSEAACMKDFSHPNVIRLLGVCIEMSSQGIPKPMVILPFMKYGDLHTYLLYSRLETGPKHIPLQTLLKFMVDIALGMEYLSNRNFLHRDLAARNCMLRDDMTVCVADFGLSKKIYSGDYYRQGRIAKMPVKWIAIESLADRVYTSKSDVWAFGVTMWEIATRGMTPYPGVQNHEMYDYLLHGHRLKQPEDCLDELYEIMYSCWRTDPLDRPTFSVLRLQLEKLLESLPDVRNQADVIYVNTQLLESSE
- Assay Method Text: Human Mer kinase assay (33P radiometric / HTRF KinEase)
- Experimental Conditions: protocols of Examples C-1 and/or C-2
pIC50: −log10 of the molar value. Counter-ions that a name gives are not always drawn.
Readout Label: pIC50

compound=COc1cc2nccc(Oc3ccc(NC(=O)c4c(C)nc(C)c(C(=O)NC5CC5)c4O)cc3F)c2nc1OC observed_value="< 6.52"
compound=COc1nc2c(Oc3ccc(NC(=O)c4c(C)n(C)c(C)c(C5=CCCC5)c4=O)cc3F)ccnc2cc1OCCC1CCC1 observed_value="≥ 7.00"
compound=COCCOc1cnc2c(Oc3ccc(NC(=O)c4c(C)nc(C)c(C5=CCCC5)c4O)cc3F)ccnc2c1 observed_value="≥ 7.00"
compound=COCCOc1cc2nccc(Oc3ccc(NC(=O)c4cnc(C)c(/C=C/C5CC5)c4O)cc3F)c2nc1OC observed_value="≥ 7.00"
compound=COc1cnc2c(Oc3ccc(NC(=O)c4cnc(C)c(C5=CCCCC5)c4O)cc3F)ccnc2c1 observed_value="≥ 7.00"
compound=COCCOc1cnc2c(Oc3ccc(NC(=O)c4c(C)n(C)c(C)c(C5=CCOCC5)c4=O)cc3F)ccnc2c1 observed_value="< 6.52"
compound=COc1cc2nccc(Oc3ccc(NC(=O)c4c5n(c(C)c(C6=CCCC6)c4=O)CCOC5)cc3)c2nc1OC observed_value="≥ 7.00"
compound=COc1cc2nccc(Oc3ccc(NC(=O)c4c5n(cc(C6=CCCC6)c4=O)CCOC5)cc3)c2nc1OC observed_value="≥ 7.00"
compound=COc1cc2nccc(Oc3ccc(NC(=O)c4cnc(C)c(/C=C/CC(C)C)c4O)cc3F)c2cc1OC observed_value="≥ 7.00"
compound=COCCOc1cc2nccc(Oc3ccc(NC(=O)c4c(C)n(C)c(C)c(/C=C/C5CCCC5)c4=O)cc3F)c2nc1OC observed_value="≥ 7.00"
compound=COc1cc2nccc(Oc3ccc(NC(=O)c4cnc(C)c(C5=CCCC5)c4O)cc3F)c2cc1OC observed_value="≥ 7.00"
compound=COc1cc2nccc(Oc3ccc(NC(=O)c4c(C)n(C)c(C)c(N5CCCC5)c4=O)cc3F)c2nc1OC observed_value="≥ 7.00"
compound=COc1cc2nccc(Oc3ccc(NC(=O)c4cnc(C)c(/C=C/C(C)(C)C)c4O)cc3F)c2cc1OC observed_value="≥ 7.00"
compound="COc1cc2nccc(Oc3ccc(NC(=O)c4cnc(C)c(C5=CCCC5)c4O)cc3F)c2nc1OC [Compound G1-2, hydrochloride]" observed_value="≥ 7.00"
compound=C=C(C)c1c(C)n(C)c(C)c(C(=O)Nc2ccc(Oc3ccnc4cc(OC)c(OC)nc34)cc2)c1=O observed_value="≥ 7.00"
compound=COCCOc1cnc2c(Oc3ccc(NC(=O)c4c(C)n(C)c(C)c(C5=CCCCC5)c4=O)cc3F)ccnc2c1 observed_value="≥ 7.00"
compound=COc1cc2nccc(Oc3ccc(NC(=O)c4c(C)n(C)c(C)c(C(=O)N(C)C)c4=O)cc3F)c2nc1OC observed_value="< 6.52"
compound=COc1ccc2nccc(Oc3ccc(NC(=O)c4cnc(C)c(C5=CCOCC5)c4O)cc3F)c2n1 observed_value="≥ 7.00"
compound=COc1cc2nccc(Oc3ccc(NC(=O)c4c(C)nc(C)c(C5=CCCCC5)c4O)cc3F)c2nc1OC observed_value="≥ 7.00"
compound=COc1ccc2nccc(Oc3ccc(NC(=O)c4cnc(C)c(C5=CCCCC5)c4O)cc3F)c2n1 observed_value="≥ 7.00"
compound=COc1cc2nccc(Oc3ccc(NC(=O)c4cnc(C)c(C5=CCOCC5)c4O)cc3F)c2nc1OC observed_value="≥ 7.00"
compound=COc1cc2nccc(Oc3ccc(NC(=O)c4c(C)ccn(C(C)C)c4=O)cc3)c2nc1OC observed_value="≥ 7.00"
compound=COc1cc2nccc(Oc3ccc(NC(=O)c4c(C)n(C)c(C)c(C5CC5)c4=O)cc3)c2nc1OC observed_value="< 6.52"
compound=COc1cc2nccc(Oc3ccc(NC(=O)c4c(C)n(C)c(C)c(C5CC5)c4=O)cc3F)c2nc1OC observed_value="≥ 7.00"
compound=COc1cc2nccc(Oc3ccc(NC(=O)c4c(C)nc(C)c(C#N)c4O)cc3F)c2nc1OC observed_value="< 6.52"
compound=COCCOc1cc2nccc(Oc3ccc(NC(=O)c4c(C)nc(C)c(OC)c4O)cc3)c2nc1OC observed_value="< 6.52"
compound=C=C(C)c1c(C)nc(C)c(C(=O)Nc2ccc(Oc3ccnc4cc(OC)c(OC)nc34)c(F)c2)c1O observed_value="≥ 7.00"
compound=C=C(C)n1c(C)cc(C)c(C(=O)Nc2ccc(Oc3ccnc4cc(OC)c(OC)nc34)c(F)c2)c1=O observed_value="≥ 7.00"
compound=COc1cnc2c(Oc3ccc(NC(=O)c4cnc(C)c(C5=CCOCC5)c4O)cc3F)ccnc2c1 observed_value="≥ 7.00"
